# SYSTEM_TESTED: human androgen receptor (Homo sapiens, UniProt P10275)
# Construct: expressed in transfected cells; host or cells: Chinese hamster ovary (CHO) cells, cell line CHO-AR-pMMTV-LUC 1G12-A5-CA
# Sequence (P10275 1-920): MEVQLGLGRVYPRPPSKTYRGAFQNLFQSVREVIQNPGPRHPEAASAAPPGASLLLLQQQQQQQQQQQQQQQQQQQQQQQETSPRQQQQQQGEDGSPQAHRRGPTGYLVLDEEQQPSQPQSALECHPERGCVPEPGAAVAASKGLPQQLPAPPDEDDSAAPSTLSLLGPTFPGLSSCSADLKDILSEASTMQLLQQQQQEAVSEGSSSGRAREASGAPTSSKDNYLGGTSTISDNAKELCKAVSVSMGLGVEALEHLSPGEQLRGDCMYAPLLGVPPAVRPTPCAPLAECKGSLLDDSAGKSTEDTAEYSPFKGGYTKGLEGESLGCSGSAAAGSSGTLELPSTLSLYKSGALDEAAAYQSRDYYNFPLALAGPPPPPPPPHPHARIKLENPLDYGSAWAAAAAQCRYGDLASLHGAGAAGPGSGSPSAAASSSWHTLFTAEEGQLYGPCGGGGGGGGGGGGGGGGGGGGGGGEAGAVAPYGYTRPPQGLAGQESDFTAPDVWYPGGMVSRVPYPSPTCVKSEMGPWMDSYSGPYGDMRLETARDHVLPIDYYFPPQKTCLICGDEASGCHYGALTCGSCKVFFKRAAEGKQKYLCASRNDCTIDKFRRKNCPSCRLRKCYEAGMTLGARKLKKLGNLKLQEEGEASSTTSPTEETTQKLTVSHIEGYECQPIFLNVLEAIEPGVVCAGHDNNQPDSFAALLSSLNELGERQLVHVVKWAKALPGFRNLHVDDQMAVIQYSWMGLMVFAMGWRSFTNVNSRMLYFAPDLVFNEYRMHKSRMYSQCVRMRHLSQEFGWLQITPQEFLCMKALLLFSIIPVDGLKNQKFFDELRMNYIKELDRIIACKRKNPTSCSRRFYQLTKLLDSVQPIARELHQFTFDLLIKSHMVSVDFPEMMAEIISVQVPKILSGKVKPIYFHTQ
# ASSAY_INFO: Androgen receptor transactivation assay, androgenic activity in the presence of 0.1 µmol/l onapristone (CHO-AR-pMMTV-LUC cells; Table 5)
# Assay type: cell-based
# CONDITION_SET: maximal intrinsic activity in the presence of 100 nM DHT set at 1.00

- MOLECULE: "O=[N+]([O-])c1ccccc1Sc1cn(Cc2cc(F)cc(F)c2)c2cc(NS(=O)(=O)c3ccsc3)ccc12 [Compound 107]"
  SYSTEM_TESTED: "human androgen receptor (Homo sapiens, UniProt P10275)"
  ago efficacy: "++ (≥0.80)"
- MOLECULE: "N#Cc1ccc2c(Sc3ccccc3[N+](=O)[O-])cn(Cc3cncnc3)c2c1 [Compound 123]"
  SYSTEM_TESTED: "human androgen receptor (Homo sapiens, UniProt P10275)"
  ago efficacy: "++ (≥0.80)"
- MOLECULE: "O=C(NC1CC1)c1ccc2c(Sc3ccccc3[N+](=O)[O-])cn(Cc3cccnc3)c2c1 [Compound 114]"
  SYSTEM_TESTED: "human androgen receptor (Homo sapiens, UniProt P10275)"
  ago efficacy: "++ (≥0.80)"

----------
Quick reference for Emax among some compounds
# SYSTEM_TESTED: human androgen receptor (Homo sapiens, UniProt P10275)
# Construct: expressed in transfected cells; host or cells: Chinese hamster ovary (CHO) cells, cell line CHO-AR-pMMTV-LUC 1G12-A5-CA
# Sequence (P10275 1-920): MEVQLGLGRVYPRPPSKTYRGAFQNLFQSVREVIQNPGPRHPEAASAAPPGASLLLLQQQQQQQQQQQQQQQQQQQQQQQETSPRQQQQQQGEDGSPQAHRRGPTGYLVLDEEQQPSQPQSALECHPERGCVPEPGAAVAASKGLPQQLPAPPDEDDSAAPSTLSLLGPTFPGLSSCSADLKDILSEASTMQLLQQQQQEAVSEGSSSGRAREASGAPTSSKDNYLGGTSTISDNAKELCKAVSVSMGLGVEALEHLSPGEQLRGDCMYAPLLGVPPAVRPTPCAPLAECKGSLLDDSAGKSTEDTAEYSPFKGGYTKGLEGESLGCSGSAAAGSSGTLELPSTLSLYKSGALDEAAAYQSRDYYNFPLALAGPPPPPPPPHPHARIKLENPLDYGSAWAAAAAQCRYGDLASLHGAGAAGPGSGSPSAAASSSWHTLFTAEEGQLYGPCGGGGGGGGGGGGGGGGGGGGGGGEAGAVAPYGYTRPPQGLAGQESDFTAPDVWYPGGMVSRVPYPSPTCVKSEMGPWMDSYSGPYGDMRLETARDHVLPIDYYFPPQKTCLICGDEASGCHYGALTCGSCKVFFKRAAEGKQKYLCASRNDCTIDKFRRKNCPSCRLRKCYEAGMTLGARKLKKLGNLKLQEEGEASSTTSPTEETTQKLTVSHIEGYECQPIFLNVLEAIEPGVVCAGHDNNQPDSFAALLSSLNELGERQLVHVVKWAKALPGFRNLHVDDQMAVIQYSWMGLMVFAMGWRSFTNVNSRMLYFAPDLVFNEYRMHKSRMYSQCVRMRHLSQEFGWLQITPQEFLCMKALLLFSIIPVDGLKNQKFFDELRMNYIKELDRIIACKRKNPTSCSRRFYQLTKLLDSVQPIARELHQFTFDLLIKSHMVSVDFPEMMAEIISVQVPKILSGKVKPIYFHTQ
# ASSAY_INFO: Androgen receptor transactivation assay, antiandrogenic activity: inhibition of transactivation in the presence of 1 nM DHT (CHO-AR-pMMTV-LUC cells; Table 4)
# Type: cell-based
# CONDITION_SET: in the presence of 1 nM DHT; intrinsic activity relative to reference antiandrogen Hydroxyflutamide (set at 100%); read-out: ant efficacy
# Method: Compounds were tested for their Androgen Receptor activity in a transactivation assay and in a binding assay. The (anti-)androgenic activity of test compounds (EC50 and intrinsic activity) was determined in an in vitro bioassay of Chinese hamster ovary (CHO) cells stably transfected with the human androgen receptor expression plasmid and a reporter plasmid in which the MMTV-promoter is linked to the luciferase reporter gene. […]
Where a name gives a salt, the structure may show the parent alone.

- COMPOUND: "COc1ccc2c(Sc3ccccc3[N+](=O)[O-])cn(Cc3ccccn3)c2c1 [Compound 10, monohydrochloride]"
  Emax: "< 20%"
- COMPOUND: "O=C(c1ccc2c(Sc3ccccc3[N+](=O)[O-])cn(Cc3cc(F)cc(F)c3)c2c1)N1CCOCC1"
  Emax: "< 20%"
- COMPOUND: "COCCNC(=O)c1ccc2c(Sc3ccccc3[N+](=O)[O-])cn(Cc3cc(F)cc(F)c3)c2c1"
  Emax: "< 20%"
- COMPOUND: "COc1ccc2c(Sc3ccccc3[N+](=O)[O-])cn(Cc3ccc(Cl)cc3)c2c1"
  Emax: "50 to 80%"
- COMPOUND: "CN1CCN(C(=O)c2ccc3c(Sc4ccccc4[N+](=O)[O-])cn(Cc4cc(F)cc(F)c4)c3c2)CC1"
  Emax: "< 20%"
- COMPOUND: "COc1ccc2c(Sc3ccccc3[N+](=O)[O-])cn(Cc3ccccc3C)c2c1"
  Emax: "< 20%"
- COMPOUND: "COc1ccc2c(Sc3cccc[n+]3[O-])cn(Cc3cc(F)cc(F)c3)c2c1"
  Emax: "20 to 50%"
- COMPOUND: "COc1ccc2c(Sc3ccccc3[N+](=O)[O-])cn(Cc3cc(Cl)cc(Cl)c3)c2c1"
  Emax: "< 20%"
- COMPOUND: "COc1ccc2c(Sc3ccccc3[N+](=O)[O-])cn(Cc3ccc(C#N)cc3)c2c1"
  Emax: "< 20%"
- COMPOUND: "COc1cccc(Cn2cc(Sc3ccccc3[N+](=O)[O-])c3ccc(OC)cc32)c1"
  Emax: "< 20%"
- COMPOUND: "COc1ccc2c(Sc3ccccc3[N+](=O)[O-])cn(Cc3ccc(F)cc3)c2c1"
  Emax: "< 20%"
- COMPOUND: "O=[N+]([O-])c1ccccc1Sc1cn(Cc2cc(F)cc(F)c2)c2ccccc12"
  Emax: "< 20%"
- COMPOUND: "CC(C)CNC(=O)c1ccc2c(Sc3ccccc3[N+](=O)[O-])cn(Cc3cc(F)cc(F)c3)c2c1"
  Emax: "< 20%"
- COMPOUND: "O=[N+]([O-])c1ccccc1Sc1cn(Cc2cc(F)cc(F)c2)c2cc(Cl)ccc12"
  Emax: "< 20%"
- COMPOUND: "COc1ccc2c(Sc3ccccc3[N+](=O)[O-])cn(Cc3cc(F)cc(C(F)(F)F)c3)c2c1"
  Emax: "< 20%"
- COMPOUND: "COc1ccc2c(Sc3ccccc3[N+](=O)[O-])cn(Cc3ccccc3Cl)c2c1"
  Emax: "< 20%"
- COMPOUND: "COc1ccc2c(Sc3ccccc3[N+](=O)[O-])cn(Cc3ccc(Cl)s3)c2c1"
  Emax: "< 20%"
- COMPOUND: "COc1ccc2c(Sc3ccccc3[N+](=O)[O-])cn(Cc3cccc(F)c3)c2c1"
  Emax: "< 20%"
- COMPOUND: "O=C(Nc1ccc2c(Sc3ccccc3[N+](=O)[O-])cn(Cc3cc(F)cc(F)c3)c2c1)C(F)(F)F"
  Emax: "< 20%"
- COMPOUND: "COc1ccc2c(Sc3ccccc3[N+](=O)[O-])cn(Cc3cccc(C#N)c3)c2c1"
  Emax: "< 20%"
- COMPOUND: "COc1ccc2c(c1)c(Sc1ccccc1[N+](=O)[O-])cn2Cc1ccccc1"
  Emax: "> 80%"
- COMPOUND: "COc1ccc(Cn2cc(Sc3ccccc3[N+](=O)[O-])c3ccc(OC)cc32)cc1"
  Emax: "> 80%"
- COMPOUND: "COc1ccc2c([S+]([O-])c3ccccc3[N+](=O)[O-])cn(Cc3cc(F)cc(F)c3)c2c1 (centres unmarked)"
  Emax: "50 to 80%"
- COMPOUND: "COc1ccc2c(Sc3ccccc3[N+](=O)[O-])cn(Cc3cccc(C(F)(F)F)c3)c2c1"
  Emax: "< 20%"
- COMPOUND: "COc1ccc2c(Sc3ccccc3[N+](=O)[O-])cn(Cc3ccccc3C(F)(F)F)c2c1"
  Emax: "< 20%"
- COMPOUND: "COc1ccc2c(Sc3ccccc3OC)cn(Cc3cc(F)cc(F)c3)c2c1"
  Emax: "< 20%"
- COMPOUND: "O=[N+]([O-])c1ccccc1Sc1cn(Cc2cc(F)cc(F)c2)c2cc(C(F)(F)F)ccc12"
  Emax: "< 20%"
- COMPOUND: "O=C(O)c1ccc2c(Sc3ccccc3[N+](=O)[O-])cn(Cc3cc(F)cc(F)c3)c2c1"
  Emax: "< 20%"
- COMPOUND: "COc1ccc2c(Sc3ccccc3[N+](=O)[O-])cn(Cc3ccc(Cl)c(C(F)(F)F)c3)c2c1"
  Emax: "< 20%"
- COMPOUND: "COC(=O)c1ccccc1Sc1cn(Cc2cc(F)cc(F)c2)c2cc(OC)ccc12"
  Emax: "< 20%"
- COMPOUND: "O=C(NCc1ccco1)c1ccc2c(Sc3ccccc3[N+](=O)[O-])cn(Cc3cc(F)cc(F)c3)c2c1"
  Emax: "< 20%"
- COMPOUND: "CNC(=O)c1ccccc1Sc1cn(Cc2cc(F)cc(F)c2)c2cc(OC)ccc12"
  Emax: "50 to 80%"
